# system-name: Nuclear receptor subfamily 1 group I member 2 (Rattus norvegicus)
# run-description: Rat pregnane X receptor (rPXR) activation by small molecules, qHTS assay (AID 1346983); note: % is set by controls: 0 for no effect and ±100 for the full control effect; nearly all actives have a fitted effect of over 20% in size
# condition-set: rPXR luciferase reporter cells, One-Glo luminescence, 24 h; stronger effect = higher value
Records with an inconclusive call do not appear.
Form field: max activation (one value per entry).
// units = %; emit number, no label

In: Kindly indicate its recorded max activation. Item: CCOC(CN1CCN(CC(C)C(=O)c2ccccc2)CC1)c1ccccc1 (centres undefined)
Out: 1.41

In: Kindly indicate its recorded max activation. Item: Cc1ncc([N+](=O)[O-])n1CC(C)O (centres undefined)
Out: -2.68

Continuing:
In: Kindly indicate its recorded max activation. Item: O=C(Cn1ccnc1[N+](=O)[O-])NCc1ccccc1
Out: -1.78

In: Kindly indicate its recorded max activation. Item: N#CCC(=O)NN
Out: -4.95

In: Kindly indicate its recorded max activation. Item: O=NN(CCCl)C(=O)NC1CCCCC1
Out: -2.8

In: Kindly indicate its recorded max activation. Item: Nc1nc(-c2ccccc2)c(Br)c(=O)[nH]1
Out: -0.177

In: Kindly indicate its recorded max activation. Item: COc1ccc2c(c1)c1c3n2CCN(C)C3=NCC1
Out: 5.26

In: Kindly indicate its recorded max activation. Item: N[C@@H](Cc1ccc(O)cc1)C(=O)O
Out: 3.66

In: Kindly indicate its recorded max activation. Item: CC(C)(C)NC[C@H](O)COc1cccc2c1CCCC2=O
Out: 0.088

In: Kindly indicate its recorded max activation. Item: N[C@@H](CSCCCO)C(=O)O
Out: -2.52

In: Kindly indicate its recorded max activation. Item: c1ccc2c(CC3=NCCN3)cccc2c1
Out: 14.1

In: Kindly indicate its recorded max activation. Item: CC1(C)O[C@H]2CC(=O)OC[C@]23[C@H]2CC[C@@]4(C)[C@H](c5ccoc5)OC(=O)[C@H]5O[C@]54[C@]2(C)C(=O)C[C@@H]13
Out: 5.81

In: Kindly indicate its recorded max activation. Item: CC(=O)O[C@@H]1CC2CCC1(C)C2(C)C (some centres undefined)
Out: -1.62

In: Kindly indicate its recorded max activation. Item: O=C(O)[C@H](O)c1ccccc1
Out: -3.01

====

# system-name: Cytochrome P450 1A2 (Homo sapiens) (UniProt P05177)
# Sequence (P05177 whole entry, looked up): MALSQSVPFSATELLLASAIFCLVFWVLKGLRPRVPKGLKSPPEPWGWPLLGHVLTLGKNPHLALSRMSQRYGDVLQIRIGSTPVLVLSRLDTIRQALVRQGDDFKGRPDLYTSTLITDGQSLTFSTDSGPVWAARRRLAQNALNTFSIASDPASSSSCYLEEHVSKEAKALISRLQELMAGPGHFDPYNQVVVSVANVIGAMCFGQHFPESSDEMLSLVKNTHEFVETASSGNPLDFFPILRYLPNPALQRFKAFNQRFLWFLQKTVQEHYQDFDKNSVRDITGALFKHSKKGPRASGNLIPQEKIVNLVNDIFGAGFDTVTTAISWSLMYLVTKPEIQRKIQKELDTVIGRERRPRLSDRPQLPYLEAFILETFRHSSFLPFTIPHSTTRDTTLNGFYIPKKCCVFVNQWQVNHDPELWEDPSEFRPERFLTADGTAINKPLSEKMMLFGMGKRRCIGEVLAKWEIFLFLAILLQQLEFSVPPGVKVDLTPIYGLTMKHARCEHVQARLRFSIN
# run-description: Cytochrome P450 Family 1 Subfamily A Member 2 (CYP1A2) small molecule antagonists: luciferase reporter qHTS assay (AID 1671199); note: nearly all actives have a fitted effect of over 50% in size
# condition-set: P450-Glo CYP1A2 enzyme, luciferin luminescence, 1 h; series mostly up to 115 µM
Results filed as inconclusive are left out. Calls of active or inactive are those of the source. Calls follow the shape of the dose curve; as a rule, active = well fitted inhibition curve with a large enough effect in the repeat runs; inconclusive = weak or mixed curves; inactive = no such curve, though single readings can be large or run the other way.
Hi! Could you answer with just one of these? true for active, false for inactive

In: Test call for this compound, please: CC(=O)CCC1=C(C)CCCC1(C)C
Out: true

In: Test call for this compound, please: C/C(=C1\CCOC(=O)S1)N(C=O)Cc1cnc(C)nc1N
Out: false

In: Test call for this compound, please: CCCCOC(=O)[C@H](C)O
Out: false

In: Test call for this compound, please: C[Si]1(C)O[Si](C)(C)O[Si](C)(C)O[Si](C)(C)O[Si](C)(C)O1
Out: false

In: Test call for this compound, please: OCC1(CO)COCOC1
Out: false

In: Test call for this compound, please: CC(C)OC(=O)OCOP(=O)(CO[C@H](C)Cn1cnc2c(N)ncnc21)OCOC(=O)OC(C)C
Out: false

In: Test call for this compound, please: O=Cc1ccccc1Cl
Out: false

In: Test call for this compound, please: O/N=C/C=N/O
Out: false

Continuing:
In: Test call for this compound, please: CN(C)CCCCl
Out: false

In: Test call for this compound, please: O=C(CCCl)NCCc1ccccc1
Out: false

In: Test call for this compound, please: CCCCCCCCCCCCCCC(=O)NC(CO)CCCCCCCCCCCCCC (centres undefined)
Out: true
